system: PKN2; settings: concentration: 1 μM, replicates: in singlicate; n = 1;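 note: KINOMEscan kinase panel screen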

>  <compound>
COc1ccc(-n2cnc3c(N)ncnc32)cc1 [SKF-97236]

>  <unit-of-measurement>
%

>  <%Inh>
0

$$$$
>  <compound>
O=C(Nc1n[nH]c2cc(-c3ccccc3F)ccc12)C1CC1 [SB-733371]

>  <unit-of-measurement>
%

>  <%Inh>
14

$$$$
>  <compound>
C[C@@H]1CC[C@H](C(=O)NC2CCCCC2)CN1c1cc(-c2ccc3c(N)n[nH]c3c2)nc(N)n1 [GSK2291363]

>  <unit-of-measurement>
%

>  <%Inh>
0

$$$$
>  <compound>
COc1cc2nccc(Nc3cccc(Oc4ccccc4)c3)c2cc1OC.Cl [GW284543]

>  <unit-of-measurement>
%

>  <%Inh>
0

$$$$
>  <compound>
CCS(=O)c1ccc(-c2coc3ccc(-c4nnc(C)o4)cc23)cc1 (centres unmarked)

>  <unit-of-measurement>
%

>  <%Inh>
16

$$$$
>  <compound>
Nc1ncnc2c1ncn2-c1ccc(Cl)cc1 [AH2635]

>  <unit-of-measurement>
%

>  <%Inh>
0

$$$$
>  <compound>
Cc1nnc(-c2ccc(C)c(-c3ccc(C(=O)O)cc3)c2)o1 [GW608005]

>  <unit-of-measurement>
%

>  <%Inh>
0

$$$$
>  <compound>
COC(=O)c1c(-c2ccccc2)c2cc(Br)ccc2c(=O)n1Cc1ccc(S(C)(=O)=O)cc1

>  <unit-of-measurement>
%

>  <%Inh>
0

$$$$
>  <compound>
CCC(=O)c1c(-c2ccccc2)c2cc(Cl)ccc2c(=O)n1Cc1ccc(C(=O)O)cc1

>  <unit-of-measurement>
%

>  <%Inh>
0

$$$$
>  <compound>
Nc1nc(-c2ccccc2F)c(-c2ccnc3ccccc23)s1 [GW560459]

>  <unit-of-measurement>
%

>  <%Inh>
0

$$$$
>  <compound>
COc1ccc(-c2cc3c(C)nc(N)nc3n([C@H]3CC[C@H](OCCO)CC3)c2=O)cn1

>  <unit-of-measurement>
%

>  <%Inh>
0

$$$$
>  <compound>
COc1cc(OC)cc(-c2cc3cnc(N)nc3nc2NC(=O)NC(C)(C)C)c1

>  <unit-of-measurement>
%

>  <%Inh>
22

$$$$
>  <compound>
COc1cc2nccc(Nc3ccc(OCc4ccc(NC(C)=O)cc4)cc3)c2cc1OC.Cl [GW440135]

>  <unit-of-measurement>
%

>  <%Inh>
0

$$$$
>  <compound>
CCCC(=O)Nc1n[nH]c2ncc(-c3cccc4ccccc34)cc12 [SB-642057]

>  <unit-of-measurement>
%

>  <%Inh>
0

$$$$
>  <compound>
COC(=O)c1c(-c2ccccc2)c2cc(Br)ccc2c(=O)n1Cc1ccc(NC(=O)CCC(=O)O)cc1

>  <unit-of-measurement>
%

>  <%Inh>
0

$$$$
>  <compound>
Cc1nnc(-c2ccc3ncn(-c4ccc(S(C)=O)cc4)c3c2)o1 (centres unmarked)

>  <unit-of-measurement>
%

>  <%Inh>
0

$$$$
>  <compound>
O=C(NCc1cccs1)c1cc(C(=O)c2c(Cl)cccc2Cl)c[nH]1 [GW823670]

>  <unit-of-measurement>
%

>  <%Inh>
0

$$$$
